Data origin, for the record: PubChem BioAssay (NCI)

# Tested on: NCI/ADR-RES ovarian
# test: NCI-60 one-dose screen, 48 h
# stated_conditions: 10 µM unless noted
# Procedure: Growth inhibition of the NCI/ADR-RES human […] tumor cell line is measured as a screen for anti-cancer activity. Cells are grown in 96 well plates and exposed to the test compound for 48 hours. Compounds are tested at a single concentration, which is 10^-5 M for most compounds. The reported endpoint is percent growth (GI% or GIPRCNT), where numbers from 0 - 100% represent growth inhibition, and numbers from -100% - 0 represent cell death. For example, a value of 40 represents 60% growth inhibition. […]
This is part of a sample that, as a whole, favours compounds with a hit. Of some 83,000 tested, about 20% had one in any assay. Active and inactive are the calls of the source. Rule for the calls: active = growth percent below 10; inactive = the rest.
Possible outcomes: active, inactive

>  <sample_smiles>
O=c1ccc(N=Nc2ccccc2)ccc1Cl

>  <label_class>
active

$$$$
>  <sample_smiles>
Cc1c(C(=O)/C=C/Nc2c(Cl)cc(S(N)(=O)=O)cc2Cl)sc2nc3ccccc3n12

>  <label_class>
inactive

$$$$
>  <sample_smiles>
COC(=O)/C=C1\S/C(=N\Nc2ccc([N+](=O)[O-])cc2[N+](=O)[O-])N(C2CCCCC2)C1=O

>  <label_class>
inactive

$$$$
>  <sample_smiles>
Brc1c[n+](Cc2ccc3ccccc3c2)cn1Cc1ccc2ccccc2c1

>  <label_class>
inactive

$$$$
>  <sample_smiles>
Cc1cc(=O)oc2cc(OC(=O)CN3CCN(C)CC3)ccc12

>  <label_class>
inactive

$$$$

---

# System: HS 578T breast
# test: NCI-60 one-dose screen, 48 h (100 = growth as untreated, 0 = no growth, -100 = all killed)
# stated_conditions: 10 µM unless noted
Compounds without any hit were thinned out: in the full panel of roughly 83,000, 20% have a hit.

>  <compound>
O=C(O)C(c1ccccc1)N1C(=O)CSC1=S (stereo not drawn)

>  <growth, %>
100

$$$$
>  <compound>
COc1cccc2c(=O)c3c(sc12)c(NCCCN)nc1ccccc13

>  <growth, %>
60

$$$$
>  <compound>
O=C1CSC(c2c(Cl)cccc2Cl)N1c1nc(Cl)cc(=O)[nH]1 (stereo not drawn)

>  <growth, %>
109

$$$$
>  <compound>
CCCCCCNC(=O)Oc1ccc(/C(=C(\C)c2ccc(OC)cc2)c2ccc(OCCN3CCCCC3)cc2)cc1

>  <growth, %>
65.7

$$$$
>  <compound>
CCOC(=O)NCCc1ccccc1

>  <growth, %>
105

$$$$
>  <compound>
Cc1cc(O)c(C2=NN(c3ccc(S(N)(=O)=O)cc3)C(c3ccccc3O)C2)cc1Cl (stereo not drawn)

>  <growth, %>
8.33

$$$$
>  <compound>
COc1ccc(C(=O)COC(=O)[C@H](C[Se][Se]C[C@H](NC(=O)c2ccc(Br)cc2F)C(=O)OCC(=O)c2ccc(OC)cc2)NC(=O)c2ccc(Br)cc2F)cc1

>  <growth, %>
-6.55

$$$$
>  <compound>
C=C(C)[C@@H]1CC[C@]2(N=C=O)CC[C@]3(C)[C@H](CC[C@@H]4[C@@]5(C)Cc6c([nH]c7ccccc67)C(C)(C)[C@@H]5CC[C@]43C)[C@@H]12

>  <growth, %>
92

$$$$
>  <compound>
Nc1nc2ccccc2c2c(=O)c3cc(F)ccc3sc12

>  <growth, %>
101

$$$$
>  <compound>
COc1ccc(S(=O)(=O)n2c3ccccc3n3ncc(-c4nnc(C)o4)c23)cc1

>  <growth, %>
27

$$$$
>  <compound>
COc1cccc(-c2nc(-c3ccc(NS(=O)(=O)c4ccccc4)cc3)[nH]c2-c2ccnc(Br)c2)c1

>  <growth, %>
7.88

$$$$
>  <compound>
O=C(Nc1ccc(Cl)cc1F)c1cc(Cl)ccc1O

>  <growth, %>
-13.9

$$$$
>  <compound>
C[C@]12CC[C@@H]3c4cc(OC(F)F)c(OS(N)(=O)=O)cc4CC[C@H]3[C@@H]1CC[C@@H]2O

>  <growth, %>
27.8

$$$$
>  <compound>
BrCCCc1n(Cc2ccc3ccccc3c2)c2ccccc2[n+]1Cc1ccc2ccccc2c1

>  <growth, %>
-48.2

$$$$
>  <compound>
CCN1C(=O)N(CC)C2Nn3c(s/c(=C4\C(=O)N(CCC(C)C)c5ccccc54)c3=O)=NC21 (stereo not drawn)

>  <growth, %>
81.4

$$$$
>  <compound>
Cc1cc(N2CCCC2)nc(N(CCCNc2ccnc3cc(Cl)ccc23)Cc2ccccn2)n1

>  <growth, %>
72.6

$$$$
>  <compound>
CC/C=C\C[C@@H](O)C/C=C1/C(=O)C=C[C@H]1C/C=C\CCCC(=O)OC

>  <growth, %>
21

$$$$
>  <compound>
CCOC(=O)c1c(C)nc2c(c1N)CC(=O)N2Cc1ccc(F)cc1

>  <growth, %>
91.5

$$$$
>  <compound>
COc1cccc(-c2nc(-c3ccc(NC(=O)c4ccccc4)cc3)[nH]c2-c2ccnc(Br)c2)c1

>  <growth, %>
-25.8

$$$$
>  <compound>
COc1ccc(/C=C(/C#N)n2nnc3cccc(F)c32)cc1

>  <growth, %>
-16.4

$$$$
>  <compound>
S=C(c1cccs1)N1CCN(c2cccc(Cl)c2)CC1

>  <growth, %>
120

$$$$
>  <compound>
c1ccc2cc(C[n+]3ccn(CCCCCCCCCCCCn4cc[n+](Cc5ccc6ccccc6c5)c4)c3)ccc2c1

>  <growth, %>
-59.2

$$$$
>  <compound>
COc1c(N2CC3CCCN(C(C)=O)C3C2)c(F)cc2c(=O)c(C(=O)N[C@H]3C(O)[C@@H](O)C(CO)O[C@H]3O)cn(C3CC3)c12 (stereo partly drawn)

>  <growth, %>
105

$$$$
>  <compound>
COc1ccc2sc3c(NCCCN(C)C)nc4ccccc4c3c(=O)c2c1

>  <growth, %>
73

$$$$
>  <compound>
COc1ccc(-c2conc2-c2ccccc2)cc1

>  <growth, %>
7.75

$$$$
>  <compound>
Fc1cc(-c2nnc3sc(-c4ccc(Cl)cc4Cl)nn23)c(Cl)cc1Cl

>  <growth, %>
-14.7

$$$$
>  <compound>
COC(=O)[C@H](C)NC(=O)NC(=O)NC(=O)CI

>  <growth, %>
114

$$$$
>  <compound>
CC([C@H]1CCC2C3CCC4C(=O)C(NC=O)=CC[C@]4(C)C3CC[C@@]21C)N(C)C (stereo partly drawn)

>  <growth, %>
33.6

$$$$

---

# System: OVCAR-3 ovarian
# test: NCI-60 one-dose screen, 48 h
# stated_conditions: 10 µM unless noted
This is part of a sample that, as a whole, favours compounds with a hit. Of some 83,000 tested, about 20% had one in any assay. Activity calls are given as the source filed them. Rule for the calls: active = growth percent below 10; inactive = the rest.
Possible outcomes: t (active), f (inactive)

>  <molecule>
Cc1cccc2c3c(sc12)C(c1ccc(F)cc1)C(C#N)=C(N)O3 (stereo not given)

>  <experimental_system>
OVCAR-3 ovarian

>  <label_class>
t

$$$$
>  <molecule>
Oc1c(I)cc(I)cc1CNCCCN(Cc1ccccn1)Cc1ccccn1

>  <experimental_system>
OVCAR-3 ovarian

>  <label_class>
t

$$$$
>  <molecule>
NS(=O)(=O)c1ccc(-n2nc(C(=O)N/N=C\c3ccc(F)cc3)cc2-c2ccc(Br)cc2)cc1

>  <experimental_system>
OVCAR-3 ovarian

>  <label_class>
f

$$$$
>  <molecule>
CCN(CC)S(=O)(=O)c1ccc(NC(=O)CSc2nnc(C)n2-c2ccccc2)cc1

>  <experimental_system>
OVCAR-3 ovarian

>  <label_class>
f

$$$$
>  <molecule>
CC(=O)CC[C@H]1C(=O)N[C@@H](C(C)C)C(=O)N[C@@H](Cc2cc(O)cc(F)c2)C(=O)N2CCC[C@H](N2)C(=O)O[C@H](/C(C)=C/C=C/C(=O)OC(C)(C)C)C/C=C/C=C/[C@H](O)[C@H](C)[C@H]1O

>  <experimental_system>
OVCAR-3 ovarian

>  <label_class>
f

$$$$

---

# System: 786-0 renal
# test: NCI-60 one-dose screen, 48 h (100 = growth as untreated, 0 = no growth, -100 = all killed)
# stated_conditions: 10 µM unless noted
The panel holds about 83,000 compounds, 20% with a hit somewhere; the sample as a whole holds those more often.
Parameter: growth. Scope: all listed entries.

>  <compound>
CNCCCC12CCC(c3ccccc31)c1ccccc12

>  <quantity_unit>
%

>  <growth>
65.7

$$$$
>  <compound>
CC(=O)OC[C@H]1OC(Sc2sc(C(=O)c3ccc(Cl)cc3)c(N)c2-c2nc3ccccc3s2)[C@H](OC(C)=O)[C@@H](OC(C)=O)[C@@H]1OC(C)=O (stereo partly drawn)

>  <quantity_unit>
%

>  <growth>
99.3

$$$$
>  <compound>
c1ccc(Nc2cc(-c3cccnc3)[nH]n2)cc1

>  <quantity_unit>
%

>  <growth>
98.1

$$$$
